Just for reference, patent US5621133A is where these values come from.

Overview of reported pKi across a group of compounds:
Molecular target: dopamine D-2 receptor (Rattus norvegicus)
Sequence (P61169 whole entry): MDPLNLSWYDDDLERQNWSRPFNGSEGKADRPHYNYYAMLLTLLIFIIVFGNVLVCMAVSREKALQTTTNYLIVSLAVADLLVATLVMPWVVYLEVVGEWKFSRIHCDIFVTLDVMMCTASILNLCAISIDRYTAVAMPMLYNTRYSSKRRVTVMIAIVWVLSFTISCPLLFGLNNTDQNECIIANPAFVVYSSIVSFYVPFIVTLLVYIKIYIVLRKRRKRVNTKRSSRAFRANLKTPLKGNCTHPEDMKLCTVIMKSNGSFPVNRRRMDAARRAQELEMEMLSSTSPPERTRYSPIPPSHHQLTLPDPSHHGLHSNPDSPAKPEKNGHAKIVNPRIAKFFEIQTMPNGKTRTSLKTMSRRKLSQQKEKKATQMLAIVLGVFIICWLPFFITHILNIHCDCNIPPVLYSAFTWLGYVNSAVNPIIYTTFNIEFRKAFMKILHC
Assay: biochemical
Assay type: binding
Details: rat caudate, [125I]-p-aminophenylethyl spiroperidol; read-out: D-2 Ki
pKi field: float, defined as -log10 of concentration (mol/L).

// known answers, use as guide
CNC[C@@H]1O[C@H](C(C)(C)C)Cc2c1ccc(O)c2O.Cl [Example 112, hydrochloride] : 5.82
Oc1ccc2c(c1O)CC1(CCCCCCC1)C1=C2CNCC1 : 5.92

Then this compound:
Item: CNCC1OC(CC(C)(C)C)Cc2c1ccc(O)c2O (stereo not drawn) | pKi: 6.00

###

Molecular target: dopamine D-1 receptor (Rattus norvegicus)
Sequence (P18901 whole entry): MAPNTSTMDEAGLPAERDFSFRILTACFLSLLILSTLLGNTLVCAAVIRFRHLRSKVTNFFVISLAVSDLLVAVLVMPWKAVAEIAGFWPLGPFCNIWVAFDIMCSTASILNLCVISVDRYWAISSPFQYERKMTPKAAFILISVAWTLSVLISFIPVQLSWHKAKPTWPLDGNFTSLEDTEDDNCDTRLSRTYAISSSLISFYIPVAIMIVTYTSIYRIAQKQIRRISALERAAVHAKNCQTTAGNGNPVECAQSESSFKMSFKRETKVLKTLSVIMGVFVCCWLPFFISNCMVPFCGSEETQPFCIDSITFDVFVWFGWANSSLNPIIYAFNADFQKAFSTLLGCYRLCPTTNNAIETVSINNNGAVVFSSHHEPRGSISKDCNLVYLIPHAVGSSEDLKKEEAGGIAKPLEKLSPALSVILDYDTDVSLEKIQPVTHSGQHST
Experiment: biochemical
Conditions: D-1 Ki, rat caudate, [125I]SCH-23982
measurementType: pKi
pKi field: float, defined as -log10 of concentration (mol/L).

// known answers, use as guide
CNC[C@@H]1O[C@H](C2(C)CCCCC2)Cc2c1ccc(O)c2O (relative stereo) [Example 226] : 7.70
CCC(=O)Oc1ccc2c(c1OC(=O)CC)CC(c1ccccc1)C=C2CN (stereo not drawn) [Example 20] : 5.72

Then this compound:
Item: CC(C)(C)C[C@H]1Cc2c(ccc(O)c2O)[C@@H](CN)O1 (relative stereo) [Example 104] | pKi: 7.43

###

Overview of reported Ki across a group of compounds:
Molecular target: dopamine D-1 receptor (Rattus norvegicus)
Test: biochemical
Conditions: D-1 Ki, rat caudate, [125I]SCH-23982
Your answer should be a plain number; it is taken to be in µM.

NCC1CC2(CCCC2)Cc2c1ccc(O)c2O (stereo not drawn) : 6
NCC1CC2(CCCCC2)Cc2c1ccc(O)c2O (stereo not drawn) : 4

Then this compound:
Item: CNC[C@H]1O[C@@H](CCN)Cc2c1ccc(O)c2O (relative stereo) | Ki: 3.6

###

Overview of reported Ki across a group of compounds:
Target: dopamine D-2 receptor (Rattus norvegicus)
Experiment: biochemical
Type: binding
Conditions: rat caudate, [125I]-p-aminophenylethyl spiroperidol; read-out: D-2 Ki
Procedure: Homogenized rat caudate was the source of the D-2 receptors. […] The molar affinity of the compound for the receptor binding site was calculated by the same method used for the D-1 receptor assay, assuming a competitive interaction between the compound and the radiolabeled ligand.
Your answer should be a plain number; it is taken to be in nM.

COc1cccc([C@@H]2Cc3c(ccc(O)c3O)[C@H](CN)O2)c1 (relative stereo) [Example 82] : 820

Item: NC[C@@H]1O[C@H](c2ccc(Br)cc2)Cc2c1ccc(O)c2O (relative stereo) [Example 69] | Ki: 2700

Item: CCCCCC(NC(C)=O)[C@@H]1Cc2c(ccc(O)c2O)[C@H](CN)O1 (relative stereo) [Example 162] | Ki: 710

###

Test system: dopamine D-1 receptor
Conditions: dopamine = 100; goldfish retina or rat striatum
measurementType: Intrinsic Activity (adenylate cyclase assay)
# print the numeric value only

NCC1OC2(CCOCC2)Cc2c1ccc(O)c2O (centres unmarked) : 104
CCC(C)C(C)[C@@H]1Cc2c(ccc(O)c2O)[C@H](CN)O1 (some centres unmarked) : 80
NC[C@H]1O[C@@H](C23CC4CC(CC(C4)C2)C3)Cc2c1cc(F)c(O)c2O (relative stereo) : 65
C=CCC[C@H]1Cc2c(ccc(O)c2O)[C@@H](CNC)O1 (relative stereo) : 106
NC[C@@H]1O[C@H](c2ccc(Br)cc2)Cc2c1ccc(O)c2O (relative stereo) : 108

Item: NC[C@H]1C[C@@H](c2cccc(O)c2)Cc2c1ccc(O)c2O (relative stereo) | Intrinsic Activity (adenylate cyclase assay): 98

Item: COc1cccc([C@@H]2Cc3c(ccc(O)c3O)[C@H](CN)O2)c1 (relative stereo) | Intrinsic Activity (adenylate cyclase assay): 107

Item: NCC1OC2(CCCCCCC2)Cc2c1ccc(O)c2O (centres unmarked) | Intrinsic Activity (adenylate cyclase assay): 110

Item: CC(C)(C)C(=O)NC[C@H]1Cc2c(ccc(O)c2O)[C@@H](CN)O1 (relative stereo) | Intrinsic Activity (adenylate cyclase assay): 97

Item: CN(C)C[C@@H]1O[C@H](c2ccccc2)Cc2c1ccc(O)c2O (relative stereo) | Intrinsic Activity (adenylate cyclase assay): 94

Item: CCCCCCCCCC[C@@H]1Cc2c(ccc(O)c2O)[C@H](CN)O1 (relative stereo) | Intrinsic Activity (adenylate cyclase assay): 91
